Ref: the NIST ThermoML archive (doi:10.1016/j.jct.2018.09.023)

test: activity coefficient (dimensionless); of the first substance listed, at infinite dilution; xn = mol fraction of the nth substance listed; conditions: 353.15 K; 101.33 kPa; Liquid; Chromatography; x1 = 0
Classify as follows. Reported activity coefficient greater than or equal to 1: Condition met. Reported activity coefficient below: Condition not met.

In [3]: df
Out[3]:
                                   molecule              group
0  CC1CCCCC1 [methylcyclohexane] + CCC[n+]1ccn(C)c1.[Br-]      Condition met
1  C1CCOC1 [tetrahydrofuran] + CCC[n+]1ccn(C)c1.[Br-]      Condition met
2  CC(C)O [propan-2-ol] + CCC[n+]1ccn(C)c1.[Br-]  Condition not met
3  CCCCCCCC [octane] + CCC[n+]1ccn(C)c1.[Br-]      Condition met
4  CC(C)CO [2-methyl-1-propanol] + CCC[n+]1ccn(C)c1.[Br-]  Condition not met
5  ClC(Cl)(Cl)Cl [tetrachloromethane] + CCC[n+]1ccn(C)c1.[Br-]      Condition met
6  C=Cc1ccccc1 [styrene] + CCC[n+]1ccn(C)c1.[Br-]      Condition met
7  ClCCl [dichloromethane] + CCC[n+]1ccn(C)c1.[Br-]  Condition not met
8  CCCCCCCCCC [decane] + CCC[n+]1ccn(C)c1.[Br-]      Condition met

Next:
Q: Form field: activity coefficient at least 1? Entry: CC(C)CC(C)(C)C [2,2,4-trimethylpentane] + CCC[n+]1ccn(C)c1.[Br-]
Ans: Condition met

* * *

experiment: activity coefficient (dimensionless); of the first substance listed, at infinite dilution; xn = mol fraction of the nth substance listed; details: 333.15 K; 101.33 kPa; Liquid; Chromatography; x1 = 0
# Lookup of reported activity coefficient keyed by entry
Hey, just send me the number, nothing else.

                                   compound  measured_number
0  CCCCCCC [heptane] + CCC[n+]1ccn(C)c1.[Br-]              102
1    CO [methanol] + CCC[n+]1ccn(C)c1.[Br-]            0.108
2  CCOC(C)=O [ethyl acetate] + CCC[n+]1ccn(C)c1.[Br-]             3.86
3  CCCCCO [pentan-1-ol] + CCC[n+]1ccn(C)c1.[Br-]            0.651
4  ClC(Cl)(Cl)Cl [tetrachloromethane] + CCC[n+]1ccn(C)c1.[Br-]             0.86

Q: Fill in: activity coefficient of CCCCCC [hexane] + CCC[n+]1ccn(C)c1.[Br-] is ___
Ans: 98.9

Q: Look up activity coefficient for this compound: ClCCl [dichloromethane] + CCC[n+]1ccn(C)c1.[Br-]
Ans: 0.29

Q: // lookup activity coefficient for CCc1ccccc1 [ethylbenzene] + CCC[n+]1ccn(C)c1.[Br-]
Ans: 5.67

Q: Which activity coefficient value belongs to C=Cc1ccccc1 [styrene] + CCC[n+]1ccn(C)c1.[Br-] ?
Ans: 1.92

Q: I have this compound here, CC#N [acetonitrile] + CCC[n+]1ccn(C)c1.[Br-] , and I need its recorded activity coefficient.
Ans: 0.39

* * *

assay: activity coefficient (dimensionless); of the first substance listed, at infinite dilution; xn = mol fraction of the nth substance listed; conditions: 343.15 K; 101.33 kPa; Liquid; Chromatography; x1 = 0
recorded metric: activity coefficient
Please reply with the value in numeric form only.

Worked examples, 4 compounds total:
>>> print(df.to_string())
                                   compound  measured_number
0  c1ccccc1 [benzene] + CCC[n+]1ccn(C)c1.[Br-]             1.89
1  CCCCCCC [heptane] + CCC[n+]1ccn(C)c1.[Br-]             98.5
2  CCCCCO [pentan-1-ol] + CCC[n+]1ccn(C)c1.[Br-]            0.619
3  C1CCCCC1 [cyclohexane] + CCC[n+]1ccn(C)c1.[Br-]             62.9

Continue with the compound presented below.
Q: Returns the measured activity coefficient for the input compound. Input: Cc1ccc(C)cc1 [1,4-dimethylbenzene] + CCC[n+]1ccn(C)c1.[Br-]
Ans: 5.95
